B1: Glucocorticoid receptor, residues 419 to 494; numbered along this chain, P04150 (parent)
chain: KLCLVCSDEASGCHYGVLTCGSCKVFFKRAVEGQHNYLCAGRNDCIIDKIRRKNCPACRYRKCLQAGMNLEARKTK

variants of: B1; assay: abundance fitness (aPCA) (normalised: wild type 0, dead -1); higher = more abundant; growth selection in yeast, the domain comes from the species named; conditions: Homo sapiens
Label scheme, based on abundance fitness: zone 1: < -0.2; zone 2: ≥ -0.2 and < -0.02; zone 3: ≥ -0.02

Textbook exercise: identify the category of the variant given here, "G12Q" , according to its measured value. zone 2

Textbook exercise: identify the category of the variant given here, "L64E" , according to its measured value. zone 3

Textbook exercise: identify the category of the variant given here, "H35S" , according to its measured value. zone 2

Textbook exercise: identify the category of the variant given here, "C6A" , according to its measured value. zone 1

Textbook exercise: identify the category of the variant given here, "G67Y" , according to its measured value. zone 1

Textbook exercise: identify the category of the variant given here, "G12N" , according to its measured value. zone 2

Textbook exercise: identify the category of the variant given here, "T75P" , according to its measured value. zone 3

Textbook exercise: identify the category of the variant given here, "A10G" , according to its measured value. zone 2

Textbook exercise: identify the category of the variant given here, "F26P" , according to its measured value. zone 1

Textbook exercise: identify the category of the variant given here, "G41I" , according to its measured value. zone 2

Textbook exercise: identify the category of the variant given here, "T75S" , according to its measured value. zone 3

Textbook exercise: identify the category of the variant given here, "V17L" , according to its measured value. zone 2

Textbook exercise: identify the category of the variant given here, "R73P" , according to its measured value. zone 3

Textbook exercise: identify the category of the variant given here, "K74Y" , according to its measured value. zone 3

Textbook exercise: identify the category of the variant given here, "K49T" , according to its measured value. zone 3

Textbook exercise: identify the category of the variant given here, "G16W" , according to its measured value. zone 1

Textbook exercise: identify the category of the variant given here, "I47R" , according to its measured value. zone 1

Textbook exercise: identify the category of the variant given here, "L4Q" , according to its measured value. zone 3

Textbook exercise: identify the category of the variant given here, "Q34E" , according to its measured value. zone 2

Textbook exercise: identify the category of the variant given here, "V25Q" , according to its measured value. zone 3

Textbook exercise: identify the category of the variant given here, "C63F" , according to its measured value. zone 1

Textbook exercise: identify the category of the variant given here, "V5N" , according to its measured value. zone 1

Textbook exercise: identify the category of the variant given here, "K76L" , according to its measured value. zone 3

Textbook exercise: identify the category of the variant given here, "Y60H" , according to its measured value. zone 2

Textbook exercise: identify the category of the variant given here, "H35V" , according to its measured value. zone 2

Textbook exercise: identify the category of the variant given here, "F26S" , according to its measured value. zone 1

Textbook exercise: identify the category of the variant given here, "R59M" , according to its measured value. zone 2

Textbook exercise: identify the category of the variant given here, "H14I" , according to its measured value. zone 2

Textbook exercise: identify the category of the variant given here, "G12V" , according to its measured value. zone 2

Textbook exercise: identify the category of the variant given here, "R42E" , according to its measured value. zone 3

Textbook exercise: identify the category of the variant given here, "K49S" , according to its measured value. zone 2

Textbook exercise: identify the category of the variant given here, "C13V" , according to its measured value. zone 3

Textbook exercise: identify the category of the variant given here, "Q65E" , according to its measured value. zone 2

Textbook exercise: identify the category of the variant given here, "R52K" , according to its measured value. zone 2

Textbook exercise: identify the category of the variant given here, "V25T" , according to its measured value. zone 3

Textbook exercise: identify the category of the variant given here, "A72S" , according to its measured value. zone 2

Textbook exercise: identify the category of the variant given here, "S11Q" , according to its measured value. zone 3

Textbook exercise: identify the category of the variant given here, "M68T" , according to its measured value. zone 1

Textbook exercise: identify the category of the variant given here, "L70I" , according to its measured value. zone 3

Textbook exercise: identify the category of the variant given here, "N54D" , according to its measured value. zone 3

Textbook exercise: identify the category of the variant given here, "C39P" , according to its measured value. zone 1

Textbook exercise: identify the category of the variant given here, "L70E" , according to its measured value. zone 2

Textbook exercise: identify the category of the variant given here, "H35P" , according to its measured value. zone 3

Textbook exercise: identify the category of the variant given here, "D48N" , according to its measured value. zone 3

Textbook exercise: identify the category of the variant given here, "C20N" , according to its measured value. zone 1

Textbook exercise: identify the category of the variant given here, "K62S" , according to its measured value. zone 2
